Field: growth. Provide a value for each of the compounds that follow.
Test system: K-562 leukemia
Experiment: NCI-60 one-dose screen, 48 h (100 = growth as untreated, 0 = no growth, -100 = all killed)
Conditions: 10 µM unless noted
Compounds without any hit were thinned out: in the full panel of roughly 83,000, 20% have a hit.
Answer format: numeric, % implied, no suffix.

For the compound S=C=Nc1ccc2ccccc2c1 , give its reported growth.
96

Tell me its growth given OCC1CCC(O)C(CO)N1 (stereo not drawn) as the entry.
116

Tell me growth reported for CC(=O)NC(CCc1ccc(Cl)c(Cl)c1)c1cccc(O)c(=O)c1 (stereo not drawn)
11.2

Given the compound NC(=O)c1cc2c3ccccc3ccn2c1-c1ccccc1 , write its reported growth.
4.64

Identify measured growth corresponding to CCOC(=O)C(COS(C)(=O)=O)(COS(C)(=O)=O)C(=O)OCC
101

Please report the measured growth for C/C(O)=C(/C=N\C(=S)Nc1ccc(S(=O)(=O)Nc2nccs2)cc1)C(=O)Nc1ccccc1C
93.7

Please give the documented growth of Oc1cccnc1CN1CCCC1
99.5

Tell me growth reported for CCOC(=O)/C(O)=C(\C=N\C(=S)Nc1ccc(Cl)c(Cl)c1)C(=O)OCC
92.7

Return reported growth. Input compound: Cc1ccc(S(N)(=O)=O)cc1Cl
92.3

State its growth: C=CCc1cc(OC)c(O)c(OC)c1
119

// Input: C=CCC(OC(C)=O)c1ccc(C(C)C)cc1 (stereo not drawn) . Output its growth only.
108

Give the reported value of growth for this record: NC(=S)N/N=C/c1ccc(OC(=O)COc2ccc(Cl)cc2)cn1
44.1

For O=C(NCc1ccccc1)c1cccc([N+](=O)[O-])c1 , write its growth.
102

Please give the documented growth of Nc1nc(Cl)cc(Cl)n1
92.3

Using the record for COc1ccc(Br)c(C=O)c1 , state its measured growth.
11.6

Report growth, nothing else, for this compound: CCOc1ccc(NC(=S)N2CCC(CCCC3CCN(C(=S)Nc4ccc(OCC)cc4)CC3)CC2)cc1
61.5

Input COc1cc(C(=O)NC(=S)NCc2ccncc2)cc(OC)c1OC , output reported growth.
86.2

Write down growth measured for item O=C(OCc1ccccc1)n1nnc2ccccc21
107

Report growth for Cc1ccc(N2C(=O)c3cccc4c(N)c(S(=O)(=O)O)cc(c34)C2=O)cc1
103

Give the reported growth for this compound. S=C(NCc1ccccc1)N1CCC(CCCC2CCN(C(=S)NCc3ccccc3)CC2)CC1
69.9

For the compound CC(=O)/C(C)=N\OC(=O)Nc1ccccc1 , give its measured growth value.
98.4

Specify growth for CCOC(=O)CNC and stop.
96.8

Item NC(=S)c1c(N)n(C2OC(CO)C(O)C2O)c2ncnc(N)c12 (stereo not drawn) : provide growth
-17.2

Look up growth of Cc1ccc2[nH]c3ccccc3c2c1 and report it.
89.8

Item CN1CCCN(C(c2ccccc2)c2ccc(Br)cc2)CC1 (stereo not drawn) : provide growth
20.3

Give the reported value of growth for this record: Oc1ccc2ccccc2c1CN1CCOCC1
118

Provide one value: measured growth of N#C/C(=C\c1ccc2c(c1)OCO2)c1ccccc1
21.4

Give the reported growth for this compound. CSCCC(NC(=O)C(Cl)Cl)C(=O)O (stereo not drawn)
97.8
